System: MS2 coat protein
Assay: apparent KD of MS2 coat protein; designed switch direction (-1 OFF switch, 1 ON switch): -1; higher = weaker reporter binding
Settings: input ligand: microRNA oligo, concentration not stated
Assay readout: apparent KD of MS2 coat protein (nM)
Answer in nM, number only, no unit symbol.

AAGUCACAGGGAGGAUAUGUGAAAGGAAGUGUAACAGAAGGCCCAACGUAGGGCGAGACAUGAGGAUCACCCAUGUAUAAAAGA [PowerStrip EXNG 1.16] (Eterna round: R96, puzzle: Exclusion NG 1) = 20.8

Name the recorded apparent KD of MS2 coat protein for AGUAACUCAAGAGGAUAUCACAUGAGGAUCACCCAUGUAUAGCGCGCUACGCUAGUCCUCGUAUUUGAGAAGGUUUGAUAAAUG [Quve] (Eterna round: R96, puzzle: Exclusion NG 2) .
11.4

Can you check ACAUGAGGAUCACCCAUGUGAAAAGAAUGGCUGACACAGAGAUAGGAUAUAGGUGCAUAUCUAACCUAGAAGGGUCAUGACUGG [Deportation 77 - Jieux - Exclusion NG 3] (Eterna round: R96, puzzle: Exclusion NG 3) next?
22.3

Another sequence: UUGUACAUAGGAUAUAGUUGUUUGUACAUGAGGAUCACCCAUGUUAUGUAUGUUUUGCUUCUAGAAGGAUGUUGUU [JR_E5_Sub004] (Eterna round: R96, puzzle: Exclusion 5)
25.8

Next record, please: UUAUUAUAUGAAGGAUAUACUUAACAUGAGGAUCACCCAUGUGGUGUUGUGAGUGAGUGAGUUUAGUAGAAGGUCAAUUCUUUU [JMF's solution 93] (Eterna round: R96, puzzle: Exclusion NG 2)
418

Try the sequence ACAUGAGGAUCACCCAUGUAAUGAAGGGUACUAUAUUAAACGUAGGAUAUCGAUGUAAGUUUGUUCGAGAAGGACGAUUGCCUU [JR_ExcNG3_Sub053] (Eterna round: R96, puzzle: Exclusion NG 3)
38.6

Check CAACAUGAGGAUCACCCAUGUGGCCCUACGUGCUGGCUCGGGCAGGAUAUUAACCAAUGAGUAGUUAAGAAGGGCUCGCAAGUA [Eternabot solution 14] (Eterna round: R96, puzzle: Exclusion NG 3) too.
40.6

What do you get for AUUGUUUGAUACCUCUAAUACAUGAGGAUCACCCAUGUUAUCGAGGAUAUGCAGAAGAGAGGAGAGCAGAAGGCGAAGUAAGAG [JR_ExcNG3_Sub027] (Eterna round: R96, puzzle: Exclusion NG 3) ?
15.9

How about UUUUGGCAUGUAGGAUAUGGGUCCGAUUGGGAUUUAGAAGGACAUGAGGAUCACCCAUGUGCCCUUACUUGGUGUUUUUUUUUU [EXclNG1-LROPPY20] (Eterna round: R96, puzzle: Exclusion NG 1) ?
44.6

Where do these numbers come from? They come from the supplement of paper PMC9170038.
